tested on: HOP-92 NSCLC; assay: NCI tumour cell line growth inhibition, 48 h
Kindly supply the reported TGI values for the records listed here.
Enter your answer as a number in µM; do not include the unit.

Ask: Value lookup for TGI; key = CCC1(O)CC(OC2CC(N(C)C)C(OC3CC(O)C(OC4CCC(=O)C(C)O4)C(C)O3)C(C)O2)c2c(cc3c(c2O)C(=O)c2c(O)ccc(O)c2C3=O)C1C(=O)OC (configuration not stated)
Result: 0.0185

Ask: Any idea what its TGI is? The compound is C/C(=N/OC(=O)c1cccc2c(=O)c3ccccc3[nH]c12)[C@H]1CC[C@H]2[C@@H]3CCC4=C/C(=N/OC(=O)c5cccc6c(=O)c7ccccc7[nH]c56)CC[C@]4(C)[C@H]3CC[C@]12C
Result: 42.6

Ask: Name the recorded TGI for CCOC(=O)c1nnn(-c2no[n+]([O-])c2-c2ccc(OC)cc2)c1COc1cccc2cccnc12 .
Result: 20.6

====

test system: MDA-MB-231 breast; assay: NCI tumour cell line growth inhibition, 48 h
Would you mind telling me the reported TGI of each entry?

Ask: Please give the measured TGI for this compound: N#CC1=C(N)Oc2c(ccc3ccccc23)C1c1cccs1 (stereo unspecified)
Result: 2.72 µM

Ask: Would you mind telling me what TGI value was observed for CC(=O)OC1Oc2ccccc2-c2oc(=O)c(-c3ccc(F)cc3)cc21 (stereo unspecified) ?
Result: > 100 µM

Ask: Given the compound CCOC(=O)/C=C1/SC(N2CCCCC2)C(=O)N1CC (stereo unspecified) , what is its reported TGI?
Result: > 100 µM

Ask: Please look up its TGI: S=C1N=C2C(=N1)n1c3c(c4ccccc41)CCCC23 (stereo unspecified)
Result: > 100 µM

Ask: Param item = COc1ccc(OC)c2c1C(=O)C(=O)C(Cl)=C2O ; retrieve measured TGI.
Result: > 100 µM

Ask: For the compound shown here, CC(=O)C1C(=O)C(=O)N(c2ccc(Cl)c(Cl)c2)C1=O (stereo unspecified) , give the reported TGI.
Result: > 100 µM

Ask: Which measured TGI value corresponds to O=C(Nc1ccc(Cl)cc1)c1cc2c(cc1Cl)Sc1nccn1S2(=O)=O ?
Result: > 100 µM

Ask: # TGI lookup, item C=C1C(=O)OC2/C=C(/CO)C3(O)CC(O)C(C)(CC(OC(=O)/C(C)=C/C)C12)O3 (stereo unspecified)
Result: 34.6 µM

Ask: Quick check: TGI of CC(C(=O)O)c1ccc(-n2nnc3c(=O)[nH][nH]c(=O)c32)cc1 (stereo unspecified) ?
Result: > 100 µM

Ask: Name the recorded TGI for Cc1ccc(NC2=N[C@]34CC(=O)CC[C@]3(C)[C@H]3CC[C@]5(C)C(=O)CC[C@H]5[C@@H]3C[C@@H]4S2)c(C)c1 .
Result: 7.92 µM

Ask: May I ask what TGI has been recorded for CCCCCCCC(=O)SCC/C=C/[C@@H]1CC(=O)NCc2cccc(n2)CN(Cc2ccc3ccccc3c2)CC(=O)N[C@@H](C(C)C)C(=O)O1 ?
Result: > 100 µM

Ask: # TGI lookup, item CC(C)=CC(=O)OC1C(CO)OC(Oc2cc(O)c3c(=O)cc(-c4ccc(O)c(O)c4)oc3c2)C(OC2OC(C)C(O)C(O)C2O)C1O (stereo unspecified)
Result: > 100 µM

Ask: Bench note: what TGI did O=C1N[C@@H]2[C@@H](O)[C@@H](O)[C@H](O)C[C@H]2c2cc3c(c(O)c21)OCO3 show?
Result: 0.926 µM

Ask: So what's the measured TGI for this one? O=C(CCc1ccc(O)c(O)c1)NCCc1cc(O)cc(OCc2ccccc2)c1
Result: > 100 µM

Ask: Need TGI of CCOC(=O)c1c(SCc2ccccc2)nc2c3ccccc3ccn12 , thanks.
Result: > 100 µM

Ask: Look up TGI for this compound: CCCNc1[nH]c(C(=O)c2ccccc2)c(N)c1C(=S)Nc1ccccc1
Result: > 100 µM

Ask: # input compound: COC(=O)c1cc(C)ccc1/C=C1\Cc2cccc(C)c2C1=O ; wanted: its TGI
Result: > 100 µM

Ask: Could you share which TGI value was measured for Cc1ccc(Cc2nc(=S)[nH][nH]2)cc1 ?
Result: > 100 µM

Ask: Given O=[N+]([O-])c1ccc2c(c1)C(=NO)c1cc([N+](=O)[O-])ccc1-2 , state its recorded TGI.
Result: > 100 µM

Ask: Entry C(=C1c2ccccc2-c2ccccc21)c1ccncc1 has what TGI?
Result: 23.1 µM

Ask: // lookup TGI for CCN(CC)CCCNc1[nH]ncc2cc3c(nc4ccccc43)c(C)c12
Result: 19.4 µM

Ask: I am curious: what TGI value has been reported for NCCCN1CCN(c2ccccc2)CC1 ?
Result: > 100 µM

Ask: Reported TGI, compound CC(CC(=O)O)(CC(=O)O)c1ccccc1 : ____
Result: > 100 µM

Ask: Tell me the measured TGI of O=C(Nc1ccc2ncccc2c1)c1cc2c(cc1Cl)Sc1nccn1S2(=O)=O , please.
Result: 45.1 µM

Ask: Given the entry COc1ccc2c(c1)[n+]([O-])c(C#N)c(NC(=O)c1cccs1)[n+]2[O-] , report its measured TGI.
Result: > 100 µM

Ask: Entry COc1ccc(Nc2nc3cc(C(F)(F)F)ccc3nc2C(=O)O)cc1 : reported TGI = ?
Result: > 100 µM

Ask: Reported TGI for Nn1c2c(c3ccccc3c1=O)C(=O)c1ccccc1-2 : what is it?
Result: > 50 µM

Ask: Look up TGI: CC(=O)N1C(Nc2cnc3ccccc3c2)CCN1c1ccccc1 (stereo unspecified)
Result: > 10 µM

Ask: Look up TGI: Cn1cc(-c2ccc(-c3cn(C)c4ccc(Cl)cc34)[nH]2)c2cc(Cl)ccc21
Result: 1.98 µM

Ask: What value of TGI has been reported for the following compound? CCOC(=O)/C(C#N)=C/c1ccc(SCc2ccco2)c([N+](=O)[O-])c1
Result: > 100 µM

Ask: Which value of TGI has been reported for O=S(/C=C/C=C/S(=O)(=O)c1ccccc1)c1ccccc1 (stereo unspecified) in the records?
Result: 8.8 µM

Ask: What value of measured TGI is listed for C=C1C(NC)CCC23CC24CCC2(C)C(C(C)=O)C(O)CC2(C)C4CCC13 (stereo unspecified) ?
Result: > 100 µM

Ask: What TGI value was documented for this compound, Cc1nn(C(=O)c2ccccc2O)c2c1C(c1ccco1)SC(N)=N2 (stereo unspecified) ?
Result: > 10 µM

Ask: I have this compound here, Cc1cc(Nc2ccc3c(c2)OCO3)c2cc3c(cc2n1)OCO3 , and I need its recorded TGI.
Result: 17 µM

Ask: Would you mind telling me what TGI value was observed for Cc1cc(N(CCNc2ccnc3cc(Cl)ccc23)Cc2cccs2)nc(Cl)n1 ?
Result: 3.06 µM

Ask: I would be grateful if you could share the reported TGI for CC1(C)CC[C@]2(C(N)=O)CC[C@]3(C)C(=CC[C@@H]4[C@@]5(C)C/C(=C/c6cccnc6)C(=O)C(C)(C)[C@@H]5CC[C@]43C)[C@@H]2C1 .
Result: 22.3 µM

Ask: # lookup: TGI of O=Cc1cn(Cc2ccc(Cl)cc2)c2ccccc12
Result: > 56.3 µM

Ask: Name the recorded TGI for CC[C@@]1(O)C(=O)OCc2c1cc1n(c2=O)Cc2c-1nc1ccccc1c2Cl .
Result: > 80.3 µM

Ask: Reported TGI for CC1=NN(C(=O)CC(=O)N(C(=O)c2ccccc2)c2ccc(Cl)cc2)C(=O)C1N=Nc1ccc([N+](=O)[O-])cc1 (stereo unspecified) : what is it?
Result: > 10 µM

Ask: Entry CC(C)c1ccc(/C=C2\N=C(c3ccc([N+](=O)[O-])cc3)OC2=O)cc1 : reported TGI = ?
Result: > 100 µM

Ask: Using the record for O=CC1=C(C(=O)OC(c2ccccc2)c2ccccc2)N2C(=O)[C@@H](NC(=O)Cc3cccs3)[C@H]2SC1 , report its TGI.
Result: > 100 µM

====

test system: A498 renal; test: NCI tumour cell line growth inhibition, 48 h
Please provide measured GI50 for the entries that follow.

Ask: What value of GI50 has been recorded for this entry: CC(C)OC(=O)c1cc(NS(=O)(=O)c2ccc3ccccc3c2)cc(C(=O)OC(C)C)c1
Result: 17.2 µM

Ask: For ClCCn1cnc2c(SCc3ccccc3Cl)ncnc21 , what is its reported GI50?
Result: 24.5 µM

Ask: What does the record list as GI50 for COc1cc(-c2csc(NC(=O)Nc3ccc(Cl)c(C(F)(F)F)c3)n2)cc(OC)c1OC ?
Result: 0.26 µM

Ask: Which GI50 is listed for O=C(CCCCN1CCOCC1)Nc1ccc(Cn2nnc3c2C(=O)c2nnn(Cc4ccc(NC(=O)CCCCN5CCOCC5)cc4)c2C3=O)cc1 ?
Result: 0.906 µM

Ask: Field request: GI50 | item: CCCCCCCC(=O)SCC/C=C/[C@@H]1CC(=O)NCc2cccc(n2)CN(Cc2ccc3ccccc3c2)CC(=O)N[C@@H](C(C)C)C(=O)O1
Result: 29.5 µM

Ask: May I ask what GI50 has been recorded for O=c1ccc2nc(C(F)(F)F)nn(-c3ccccc3)c-2c1 ?
Result: 14.1 µM

Ask: Fill in: GI50 of Nc1ccc(C(=O)NN2C(=O)[C@H](Cl)C2c2ccc(Cl)cc2)cc1 (stereo partly specified) is ___
Result: 1.62 µM

Ask: # get_value(readout='GI50', item= Nn1c2c(c3ccccc3c1=O)C(=O)c1ccccc1-2 )
Result: > 50 µM

Ask: Give its GI50 value. Item: C=C1C(=O)O[C@H]2[C@H]1CC/C(COC(=O)/C=C\C(=O)NCc1ccc(Cn3c(=O)sn(CCCI)c3=O)cc1)=C\CC[C@@]1(C)O[C@@H]21
Result: 0.831 µM

Ask: Entry under review: C[CH2][Pb]([CH2]C)([CH2]C)[O]C(=O)COc1ccccc1 . Reported GI50?
Result: 1.75 µM

Ask: If you can, please state the reported GI50 value of O=c1cc(NCC(O)CN2CCOCC2)n(Cc2ccccc2)c(=O)n1Cc1ccccc1 (stereo unspecified) .
Result: 49.3 µM
